Would you kindly list efflux ratio at 2 h for each of these molecules?
assay: Bidirectional transport in Caco-2 monolayers; conditions: human, Caco-2, pH 7.4

{"Molecule": "Nc1nc(Cl)nc2c1ncn2[C@H]1C[C@H](O)[C@@H](CO)O1 [cladribine, reference compound]", "Result": 26}

In: Fill in the blank: the reported efflux ratio at 2 h of C[C@H]1O[C@@H](O[C@H]2[C@@H](O)C[C@H](O[C@H]3[C@@H](O)C[C@H](O[C@H]4CC[C@@]5(C)[C@H](CC[C@@H]6[C@@H]5C[C@@H](O)[C@]5(C)[C@@H](C7=CC(=O)OC7)CC[C@]65O)C4)O[C@@H]3C)O[C@@H]2C)C[C@H](O)[C@@H]1O [digoxin, reference compound] is ____.
Out: 27

* * *

assay: in vitro; assay type: in vitro ADME; details: PAMPA, pH 7.4
Observation Type: Papp at 30 min

In: Fill in the blank: the reported Papp at 30 min of N#C[C@@]1(c2ccc3c(N)ncnn23)O[C@H](CO)[C@@H](O)[C@H]1O [GS-441524] is ____.
Out: < 1 ×10⁻⁶ cm/s

* * *

assay: physchem; settings: pH 5.8, fessif, thermodynamic from solid
Observation Type: solubility thermodynamic (µg/mL)
Numbers only, in µg/mL.

In: Fill in the blank: the reported solubility thermodynamic of N#C[C@@]1(c2ccc3c(N)ncnn23)O[C@H](CO)[C@@H](O)[C@H]1O [GS-441524] is ____.
Out: 52

* * *

molecular target: BCRP (Homo sapiens, UniProt Q9UNQ0); construct: host or cells: MDCK (BCRP-MDCK); experiment: Bidirectional transport in MDCK-BCRP monolayers; format: in vitro ADME; details: dog, pH 7.4, with Ko143 0.5 µM; MDCK-BCRP, 5 µM, 0.5 µM Ko143
Sequence (Q9UNQ0 whole entry): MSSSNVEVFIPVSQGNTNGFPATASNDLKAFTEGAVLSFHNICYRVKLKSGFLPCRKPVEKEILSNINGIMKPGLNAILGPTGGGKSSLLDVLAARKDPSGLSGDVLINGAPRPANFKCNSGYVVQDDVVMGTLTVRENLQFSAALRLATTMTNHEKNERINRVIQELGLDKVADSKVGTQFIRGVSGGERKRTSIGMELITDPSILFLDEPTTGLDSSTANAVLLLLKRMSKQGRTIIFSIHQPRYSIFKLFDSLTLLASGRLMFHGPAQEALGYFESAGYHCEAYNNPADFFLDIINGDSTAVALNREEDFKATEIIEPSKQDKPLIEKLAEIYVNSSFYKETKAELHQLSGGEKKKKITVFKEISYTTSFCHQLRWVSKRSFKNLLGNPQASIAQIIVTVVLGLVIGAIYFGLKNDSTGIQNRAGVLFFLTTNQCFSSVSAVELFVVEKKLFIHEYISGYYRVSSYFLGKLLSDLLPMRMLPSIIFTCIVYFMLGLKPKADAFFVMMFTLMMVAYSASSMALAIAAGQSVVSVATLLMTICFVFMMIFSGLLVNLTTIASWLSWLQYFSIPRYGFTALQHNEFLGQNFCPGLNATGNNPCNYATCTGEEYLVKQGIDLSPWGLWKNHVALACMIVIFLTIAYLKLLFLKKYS
Observation Type: Papp B→A at 2 h, 5 µM

In: Find the measured Papp B→A at 2 h, 5 µM: item `N#C[C@@]1(c2ccc3c(N)ncnn23)O[C@H](CO)[C@@H](O)[C@H]1O` , target or system BCRP (Homo sapiens, UniProt Q9UNQ0).
Out: < 0.281 ×10⁻⁶ cm/s

* * *

assay: Pharmacokinetics in Sprague Dawley rats; type: in vivo; conditions: male, rat, in vivo, iv, 5 mg/kg
Observation Type: Vd (L/kg)
Numbers only, in L/kg.

In: Fill in the blank: the reported Vd of N#C[C@@]1(c2ccc3c(N)ncnn23)O[C@H](CO)[C@@H](O)[C@H]1O [GS-441524] is ____.
Out: 2.2

* * *

experiment: Pharmacokinetics in Sprague Dawley rats; format: in vivo; settings: male, rat, in vivo, po, 30 mg/kg
Observation Type: bioavailability (%)
Answers are plain numbers, in %.

In: Fill in the blank: the reported bioavailability of N#C[C@@]1(c2ccc3c(N)ncnn23)O[C@H](CO)[C@@H](O)[C@H]1O [GS-441524] is ____.
Out: 21

* * *

experiment: Pharmacokinetics in C57BL/6 mice; format: in vivo, mouse; conditions: male, C57BL/6, mouse, in vivo, po, 10 mg/kg
Observation Type: Tmax (h)
Answers are plain numbers, in h.

In: Fill in the blank: the reported Tmax of `N#C[C@@]1(c2ccc3c(N)ncnn23)O[C@H](CO)[C@@H](O)[C@H]1O` is ____.
Out: 1.5
